- System: SF-295
- Protocol description: NCI tumour cell line growth inhibition, 48 h
The source made the active and inactive calls. Cut-off read from the data, not from the text of the source: active = GI50 up to about 1.1 µM and inactive = higher. Non-standard residues stand in square brackets, D forms with d. Residues, ends and D or L forms follow the SMILES beside them. ξ: configuration not given here. *: point of attachment. dThr(3ξ) = CC(O)[C@@H](N)C(=O)O; dNMeL = CN[C@H](CC(C)C)C(=O)O; OBn = c1ccc(CO*)cc1; ξLac = CC(O)C(=O)O
Field 'call' accepts y (active), n (inactive)

Ask: What was the test verdict on O=C1OC(OC/C(Br)=C(\Br)COC2OC(=O)C(Cl)=C2Cl)C(Cl)=C1Cl (stereo not drawn) ?
Reply: n

Ask: Could you kindly confirm the outcome this assay logged for Cc1cc(C)c2c(O)cc(-c3cccc(F)c3)nc2n1 ?
Reply: y

Ask: Field: outcome | Entry: CCOc1cc2c(cc1OC)c[n+](C)c1c3cc(OC)c(OC)cc3ccc21
Reply: n

Ask: I would be grateful if you could indicate the recorded call for COC1CC(OC2C(C)OC(OC3C(C)OC(OC4C(C)OC(O[C@H]5CC[C@@]6(C)C(=CC[C@]7(O)[C@@H]6C[C@@H](OC(=O)/C=C(\C)C(C)C)[C@@]6(C)[C@]7(O)CC[C@@]6(O)C(C)=O)C5)CC4OC)CC3OC)CC2OC)OC(C)C1O (stereo partly drawn) .
Reply: n

Ask: // param item: Cn1cnc([N+](=O)[O-])c1Sc1nncc2[nH]cnc12 ; yields the recorded call
Reply: n

Ask: # outcome recorded in this test, key = CC[N+](C)(CC)CC(C)(C)C(=O)/C=C/c1ccc(/C=C/C(=O)C(C)(C)C[N+](C)(CC)CC)cc1
Reply: n

Ask: What did the test return for CCO/C=N\C1=C(C#N)SC2=N/C(=C\c3ccc(OC)cc3)C(=O)N21 ?
Reply: n

Ask: // outcome(item) with item = COC(=O)CC[N+]1([O-])CC1
Reply: n

Ask: Status in this test for CC(=O)N/C(=C\c1cccc([N+](=O)[O-])c1)c1nc2ccc3c(c2[nH]1)C(=O)c1ccccc1C3=O ?
Reply: n

Ask: Tell me the recorded outcome of this test for N#Cc1ccc(C2ON=C(c3ccccc3)N2C23CC4CC(CC(C4)C2)C3)cc1 (stereo not drawn) .
Reply: n

Ask: Please let me know the test result on file for CC1NC(=O)C2Cc3ccc(O)c(c3)Oc3ccc(cc3)C(O)C(C(=O)N2C)N(C)C(=O)C(C)NC(=O)C(Cc2ccc(O)cc2)N(C)C(=O)C(C)NC1=O (stereo not drawn) .
Reply: n

Ask: Record lookup: outcome of this test for CC(=O)OCc1ccc2oc(=O)c(C(=O)Oc3cccc(Cl)c3)cc2c1 ?
Reply: n

Ask: How did this test come out for O=C1CC(c2ccc(O)cc2)C2(O1)C(=O)OC(C(O)CO)C2O (stereo not drawn) ?
Reply: n

Ask: I'd appreciate the recorded outcome for COc1c(C)c(C/C=C(\C)CCCCO[Si](C(C)C)(C(C)C)C(C)C)c(OC)c2ccccc12 from this test.
Reply: n

Ask: Per the records of this test, what outcome belongs to O=C(O)Cc1cccc2c(=O)c3ccccc3oc12 ?
Reply: n

Ask: Lab log entry: O=C(NC(CS)C(=O)O)c1c2ccccc2nc2ccccc12 (stereo not drawn) — outcome as called in the assay?
Reply: n

Ask: Could you check what this test reported for CC(=O)OC(C)[C@@H](NC(=O)[C@@H](CC(C)C)N(C)C(=O)[C@@H]1CCCN1C(=O)C(C)O)C(=O)OCc1ccccc1 (stereo partly drawn) (H-[ξLac]P[dNMeL][dThr(3ξ)](Ac)-OBn) ?
Reply: n

Ask: State the result this test recorded for CCOC(=O)CC(=O)ON(C)C(C)=O .
Reply: n
